Each entry below carries its reported AUC/dose.
System: Rattus norvegicus
Test: Dose normalized AUC in rat at 2 mg/kg, po by LC-MS/MS analysis
Format: ADME, organism-based
Set-up: dose 2 mg/kg, route oral
Conditions: in vivo

item_smiles	AUC/dose / µM·kg·h/mg
C[C@]1(c2cccc(Cn3c(=O)n(-c4noc5cc(Cl)ccc45)c4ccccc43)c2)OC(O)=NC1=O	1.9
COc1ccc2c(-n3c(=O)n(Cc4cc([C@@]5(C)OC(=O)NC5=O)ccc4Cl)c4ccccc43)noc2c1	0.8
COc1ccc2c(-n3c(=O)n(Cc4ccc(Cl)c(O[C@H](C)C(=O)O)c4)c4ccccc43)noc2c1	1.5
COc1ccc2c(-n3c(=O)n(Cc4cc(O[C@H](C)C(=O)O)ccc4Cl)c4ccccc43)noc2c1	5
